# EXPERIMENT: Micro-Cup Burner Test (extinguishing concentration; Mass Ratio Calculation vs HALON 1211)
# RUN PARAMETERS: volume % in air required to extinguish the flame within an average time of 30 seconds or less; propane fuel
Hi there, I'd appreciate the recorded Ext. Conc. (vol %) for every entry that follows.
Just the number please, in vol %, no unit attached.

[Q] Recorded Ext. Conc. (vol %) of O=C(C(F)(F)Cl)C(F)(C(F)(F)F)C(F)(F)F [Example 8] , please.
[A] 4.7

[Q] Please give the measured Ext. Conc. (vol %) for this compound: O=C(C(F)(F)F)C(F)(F)C(F)(F)F [Example 13, 1,1,1,3,3,4,4,4-octafluorobutan-2-one]
[A] 7.4

[Q] Returns the measured Ext. Conc. (vol %) for the input compound. Input: O=C(C(=O)C(F)(C(F)(F)F)C(F)(F)F)C(F)(C(F)(F)F)C(F)(F)F [Example 11]
[A] 4.0

[Q] Item under review: O=C(C(F)(F)C(F)(F)OC(F)(F)F)C(F)(C(F)(F)F)C(F)(F)F [Example 14] . Reported Ext. Conc. (vol %)?
[A] 4.3

[Q] Tell me the measured Ext. Conc. (vol %) of FC(F)(F)C(F)(F)C(F)(F)C(F)(F)F [Comparative Example C7, perfluoro-n-butane, reference compound] , please.
[A] 5.3

[Q] Need Ext. Conc. (vol %), item O=C(C(F)(F)C(F)(F)C(F)(F)C(F)(F)F)C(F)(C(F)(F)F)C(F)(F)F [Example 16]
[A] 4.3

FYI, the data here is from patent US6630075B2.
